B1: Twister Ribozyme (parent)
chain: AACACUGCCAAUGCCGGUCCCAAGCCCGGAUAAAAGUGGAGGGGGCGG

- Variants of: B1
- assay.summary: self-cleavage, relative activity (ratio to wild type); higher = more cleavage; co-transcriptional
The threshold is inclusive: self-cleavage of exactly 0.2 counts as Fulfilled; values below receive Not fulfilled.

>  <variant.descriptor>
C25A G41A

>  <category.label>
Not fulfilled

$$$$
>  <variant.descriptor>
A35C G47A

>  <category.label>
Fulfilled

$$$$
>  <variant.descriptor>
U12A G36U

>  <category.label>
Fulfilled

$$$$
>  <variant.descriptor>
A10U A40C

>  <category.label>
Fulfilled

$$$$
>  <variant.descriptor>
C27U A40G

>  <category.label>
Not fulfilled

$$$$
>  <variant.descriptor>
A10G A32U

>  <category.label>
Fulfilled

$$$$
>  <variant.descriptor>
C19U G43C

>  <category.label>
Fulfilled

$$$$
>  <variant.descriptor>
U12A C46A

>  <category.label>
Fulfilled

$$$$
>  <variant.descriptor>
U18A C20G

>  <category.label>
Not fulfilled

$$$$
>  <variant.descriptor>
C5A A35G

>  <category.label>
Fulfilled

$$$$
>  <variant.descriptor>
G7U G29A

>  <category.label>
Not fulfilled

$$$$
>  <variant.descriptor>
U12A A32U

>  <category.label>
Fulfilled

$$$$
>  <variant.descriptor>
G13C G16A

>  <category.label>
Not fulfilled

$$$$
>  <variant.descriptor>
A1G G41C

>  <category.label>
Not fulfilled

$$$$
>  <variant.descriptor>
C15A A34C

>  <category.label>
Not fulfilled

$$$$
>  <variant.descriptor>
A2U A35U

>  <category.label>
Fulfilled

$$$$
>  <variant.descriptor>
A22U G39C

>  <category.label>
Not fulfilled

$$$$
>  <variant.descriptor>
U6G C20A

>  <category.label>
Not fulfilled

$$$$
>  <variant.descriptor>
G44U C46G

>  <category.label>
Fulfilled

$$$$
>  <variant.descriptor>
A10U G17C

>  <category.label>
Not fulfilled

$$$$
>  <variant.descriptor>
C3U

>  <category.label>
Fulfilled

$$$$
>  <variant.descriptor>
C21U G41U

>  <category.label>
Not fulfilled

$$$$
>  <variant.descriptor>
A2C A32G

>  <category.label>
Not fulfilled

$$$$
>  <variant.descriptor>
A11U C20G

>  <category.label>
Not fulfilled

$$$$
>  <variant.descriptor>
C21G C46A

>  <category.label>
Not fulfilled

$$$$
>  <variant.descriptor>
C15A A32C

>  <category.label>
Fulfilled

$$$$
>  <variant.descriptor>
U31A G43U

>  <category.label>
Fulfilled

$$$$
>  <variant.descriptor>
C14G G36U

>  <category.label>
Not fulfilled

$$$$
>  <variant.descriptor>
A11C G36A

>  <category.label>
Fulfilled

$$$$
>  <variant.descriptor>
C3U G28U

>  <category.label>
Fulfilled

$$$$
>  <variant.descriptor>
C25U G45A

>  <category.label>
Fulfilled

$$$$
>  <variant.descriptor>
C5U G48C

>  <category.label>
Fulfilled

$$$$
>  <variant.descriptor>
U6A C9G

>  <category.label>
Fulfilled

$$$$
>  <variant.descriptor>
A35G G48A

>  <category.label>
Fulfilled

$$$$
>  <variant.descriptor>
G13C C46G

>  <category.label>
Fulfilled

$$$$
>  <variant.descriptor>
G16U A32U

>  <category.label>
Fulfilled

$$$$
>  <variant.descriptor>
G36C G44C

>  <category.label>
Fulfilled

$$$$
>  <variant.descriptor>
G13A C21A

>  <category.label>
Not fulfilled

$$$$
>  <variant.descriptor>
C3G G28U

>  <category.label>
Fulfilled

$$$$
>  <variant.descriptor>
C26U C46G

>  <category.label>
Fulfilled

$$$$
>  <variant.descriptor>
G39A G47U

>  <category.label>
Fulfilled

$$$$
>  <variant.descriptor>
G16A A33U

>  <category.label>
Fulfilled

$$$$
>  <variant.descriptor>
C21G A22U

>  <category.label>
Not fulfilled

$$$$
>  <variant.descriptor>
G13A C46A

>  <category.label>
Fulfilled

$$$$
>  <variant.descriptor>
C26G A33G

>  <category.label>
Not fulfilled

$$$$
>  <variant.descriptor>
C8A A10C

>  <category.label>
Fulfilled

$$$$
>  <variant.descriptor>
G17U A35G

>  <category.label>
Not fulfilled

$$$$
>  <variant.descriptor>
A10G U37A

>  <category.label>
Fulfilled

$$$$
>  <variant.descriptor>
C15U G48A

>  <category.label>
Fulfilled

$$$$
>  <variant.descriptor>
A34U G47C

>  <category.label>
Fulfilled

$$$$
>  <variant.descriptor>
A4G A23C

>  <category.label>
Not fulfilled

$$$$
>  <variant.descriptor>
G13A G28C

>  <category.label>
Fulfilled

$$$$
>  <variant.descriptor>
C20G A35G

>  <category.label>
Not fulfilled

$$$$
>  <variant.descriptor>
C5U C8G

>  <category.label>
Not fulfilled

$$$$
>  <variant.descriptor>
G42C G48U

>  <category.label>
Fulfilled

$$$$
>  <variant.descriptor>
G16A G39C

>  <category.label>
Not fulfilled

$$$$
>  <variant.descriptor>
C3U C46U

>  <category.label>
Fulfilled

$$$$
>  <variant.descriptor>
A23C G36U

>  <category.label>
Not fulfilled

$$$$
>  <variant.descriptor>
A1C G42A

>  <category.label>
Not fulfilled

$$$$
>  <variant.descriptor>
C8G U31C

>  <category.label>
Fulfilled

$$$$
>  <variant.descriptor>
C5A G17U

>  <category.label>
Not fulfilled

$$$$
>  <variant.descriptor>
A11G U18G

>  <category.label>
Not fulfilled

$$$$
>  <variant.descriptor>
U6C G38U

>  <category.label>
Fulfilled

$$$$
>  <variant.descriptor>
C9G G13C

>  <category.label>
Fulfilled

$$$$
>  <variant.descriptor>
U6C G47U

>  <category.label>
Fulfilled

$$$$
>  <variant.descriptor>
A1G U18A

>  <category.label>
Fulfilled

$$$$
>  <variant.descriptor>
G16C G45A

>  <category.label>
Not fulfilled

$$$$
>  <variant.descriptor>
C25U U37G

>  <category.label>
Fulfilled

$$$$
>  <variant.descriptor>
G13U A32C

>  <category.label>
Fulfilled

$$$$
>  <variant.descriptor>
A22U C46U

>  <category.label>
Fulfilled

$$$$
>  <variant.descriptor>
G7C G13C

>  <category.label>
Not fulfilled

$$$$
>  <variant.descriptor>
U6G A40G

>  <category.label>
Not fulfilled

$$$$
>  <variant.descriptor>
C8A A33U

>  <category.label>
Fulfilled

$$$$
>  <variant.descriptor>
C5A A40G

>  <category.label>
Not fulfilled

$$$$
>  <variant.descriptor>
G38A G42U

>  <category.label>
Not fulfilled

$$$$
>  <variant.descriptor>
A4U C20G

>  <category.label>
Not fulfilled

$$$$
>  <variant.descriptor>
C3A G42A

>  <category.label>
Not fulfilled

$$$$
>  <variant.descriptor>
G36U G43U

>  <category.label>
Not fulfilled

$$$$
>  <variant.descriptor>
U12G C19G

>  <category.label>
Fulfilled

$$$$
>  <variant.descriptor>
A33C G48A

>  <category.label>
Fulfilled

$$$$
>  <variant.descriptor>
C27U U37C

>  <category.label>
Not fulfilled

$$$$
>  <variant.descriptor>
A4G A34U

>  <category.label>
Fulfilled

$$$$
>  <variant.descriptor>
A35U G47U

>  <category.label>
Fulfilled

$$$$
>  <variant.descriptor>
A4U U18G

>  <category.label>
Not fulfilled

$$$$
>  <variant.descriptor>
G24C G41A

>  <category.label>
Not fulfilled

$$$$
>  <variant.descriptor>
U18C C27U

>  <category.label>
Not fulfilled

$$$$
>  <variant.descriptor>
C25A G39U

>  <category.label>
Not fulfilled

$$$$
>  <variant.descriptor>
G24A C27U

>  <category.label>
Not fulfilled

$$$$
>  <variant.descriptor>
C15U G41C

>  <category.label>
Fulfilled

$$$$
